Sourced from patent US12576052B2

assay: NOAEL of mice and conversion into human equivalent dose (HED); conditions: C57BL6, mouse, in vivo, inhaled or intranasal, 200 mg/kg
measured-metric: NOAEL at 3 weeks (mg/kg)
Answers are plain numbers, in mg/kg.

Query: # input compound: CN(C)C(=N)N=C(N)N [Metformin, metformin] ; wanted: its NOAEL at 3 weeks
Reply: 200
